Where do the numbers come from? From patent US20210115040A1.

test system: recombinant human Meningioma Expressed Antigen 5 (MGEA5), also referred to as O-GlcNAcase (OGA) (Homo sapiens, UniProt O60502)
Construct: Full length OGA enzyme was purchased at OriGene (cat #TP322411); purchased OriGene TP322411
Sequence (O60502 whole entry): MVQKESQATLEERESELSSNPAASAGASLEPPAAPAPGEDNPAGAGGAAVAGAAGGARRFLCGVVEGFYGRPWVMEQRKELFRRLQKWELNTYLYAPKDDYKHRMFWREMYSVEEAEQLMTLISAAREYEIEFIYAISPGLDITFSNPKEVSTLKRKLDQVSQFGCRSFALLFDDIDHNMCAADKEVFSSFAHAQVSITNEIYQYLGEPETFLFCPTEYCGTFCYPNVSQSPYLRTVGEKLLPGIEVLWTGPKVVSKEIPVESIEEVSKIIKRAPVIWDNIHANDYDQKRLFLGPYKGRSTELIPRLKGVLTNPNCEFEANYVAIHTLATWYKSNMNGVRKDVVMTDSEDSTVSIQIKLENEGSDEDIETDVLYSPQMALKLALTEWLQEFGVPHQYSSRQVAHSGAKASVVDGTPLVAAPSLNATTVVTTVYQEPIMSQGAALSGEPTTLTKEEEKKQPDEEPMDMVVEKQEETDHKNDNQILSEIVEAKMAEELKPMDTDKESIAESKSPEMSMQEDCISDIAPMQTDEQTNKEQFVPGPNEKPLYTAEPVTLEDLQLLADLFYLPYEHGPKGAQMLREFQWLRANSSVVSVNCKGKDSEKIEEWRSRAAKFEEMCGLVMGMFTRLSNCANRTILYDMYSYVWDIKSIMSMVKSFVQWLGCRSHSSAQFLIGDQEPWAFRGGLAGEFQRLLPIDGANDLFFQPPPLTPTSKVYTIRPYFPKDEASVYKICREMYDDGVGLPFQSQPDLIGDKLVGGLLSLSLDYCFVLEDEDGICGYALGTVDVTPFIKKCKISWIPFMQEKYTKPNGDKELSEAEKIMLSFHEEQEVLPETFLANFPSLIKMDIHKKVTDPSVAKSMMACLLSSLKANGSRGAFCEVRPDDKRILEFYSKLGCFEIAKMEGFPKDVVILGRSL
assay overview: OGA biochemical assay (inhibition of FM-GlcNAc hydrolysis, fluorescence)
measurement conditions: FM-GlcNAc substrate, 6 h at room temperature, read-out: Enzymatic hOGA, pIC50 (converted)
measurement kind: IC50 (nM)

Cc1cc(OC[C@@H]2CCCN(C(C)c3cc4nc(C)oc4cc3F)C2)cc(C)n1 (mixture of isomers) [Compound 35] : 100
Cc1cc(OC[C@H]2CCN(C(C)c3ccc4sc(C)nc4n3)C2)cc(C)n1 (mixture of isomers) [Compound 48] : 794

[A] COc1cc(C[C@@H]2CCN(C(C)c3ccc4sc(C)nc4n3)C2)cc(C)n1 (single isomer, unassigned) [Compound 97]
[B] Cc1cc(C[C@H]2CCCN(C(C)c3ccc4sc(C)nc4n3)C2)cc(C)n1 (single isomer, unassigned) [Compound 42b]
QUERY: Which record shows the lower IC50: the first, A , or the second, B ? Answer format: the label of the selected item.
RESULT: B
(B: 2.51 nM, A: 6310 nM)

[1] Cc1cc(C[C@@H]2CCN([C@H](C)c3cc4nc(C)sc4cc3F)C2)cc(C)n1 [Compound 59]
[2] Cc1cc(OC[C@H]2CCCN(C(C)c3ccc4sc(C)nc4n3)C2)nc(C)n1 (mixture of isomers) [Compound 49ab]
[3] Cc1cc(OC[C@@H]2CCCN(C(C)c3ccc4sc(C)nc4n3)C2)cc(C)n1 (mixture of isomers) [Compound 45ab]
[4] Cc1cc(C2CCCN(C(C)c3cc4nc(C)oc4cc3F)C2)cc(C)n1 (racemic) [Compound 32]
[5] Cc1cc(OC2CCCN(C(C)c3ccc4[nH]c(C)nc4n3)C2)cc(C(F)(F)F)n1 (stereo not drawn) [Compound 5]
QUERY: Number of compounds to sort: 5. Sort criterion: IC50, ascending. Reply: labels, ordered per the request.
RESULT: 4, 2, 1, 3, 5
(4: 7.94 nM, 2: 12.6 nM, 1: 200 nM, 3: 316 nM, 5: 794 nM)

[P] Cc1cc(C[C@H]2CCCN(C(C)c3ccc4oc(C)nc4n3)C2)cc(OC(F)(F)F)n1 (mixture of isomers) [Compound 25ab]
[Q] Cc1cc(CO[C@@H]2CCCN(C(C)c3ccc4sc(C)nc4n3)C2)cc(C)n1 (single isomer, unassigned) [Compound 69]
QUERY: Identify the entry with the smaller IC50: P or Q . Give the label of your selection.
RESULT: P
(P: 15.8 nM, Q: 501 nM)
